// reported melting point per item

{"columns": ["compound", "melting point"],
 "data": [
  ["CNC(=NS(C)(=O)=O)NCCCCCc1nc(N)nc(N)n1", "194 to 195 °C"],
  ["Cc1n[nH]c2cc(-c3nn(C(C)c4oc5ccccc5c(=O)c4-c4ccccc4)c4ncnc(N)c34)ccc12 (stereo not given)", "249 to 252 °C"],
  ["N#Cc1c(F)c(F)cc(C(=O)O)c1F", "187 to 190 °C"],
  ["COC(=O)c1cc(OC)c(OC)cc1NC(=O)c1sccc1S(=O)(=O)Nc1onc(C)c1Cl", "167 to 168 °C"],
  ["CCOC(=O)CCc1cn(Cc2ccc(C(=O)NCc3nc(-c4ccccc4)oc3C)cc2)nc1-c1ccccc1", "190 to 191 °C"],
  ["CNc1nc(C(=O)O)ccc1C(=O)OC", "152 to 153 °C"],
  ["COC(=O)[C@H](Cc1ccc(NC(=O)c2c(Cl)cccc2Cl)cc1)NC(=O)C1(CCNC(C)=O)CCCC1", "190 to 194 °C"],
  ["COC(=O)CS(=O)CCCCCn1nc(-c2ccccc2)c(-c2ccccc2)c1-c1ccccc1 (stereo not given)", "108 to 109 °C"],
  ["COc1ccc2[nH]cc(CC(C)(C)N)c2c1", "114 to 116 °C"]
]}

Next item in the queue.
Entry CNC(=NCCS(=O)Cc1nccs1)NC#N (stereo not given) has what melting point? 110 °C

###

# melting point per record follows

Example entries begin here.
{"columns": ["compound", "result"],
 "data": [
  ["CCC(Oc1cccc(C)c1)C(=O)OC1CC(O)C=C2C=CC(C)C(CCC3CC(O)CC(=O)O3)C21 (mixture of isomers)", "147 to 149 °C"],
  ["CC1(C)CC(N(C=O)CCCCCCN(C=O)C2CC(C)(C)NC(C)(C)C2)CC(C)(C)N1", "155 °C"],
  ["CC(C)C(NS(=O)(=O)c1ccc(Cl)s1)c1cccn1Cc1ccccc1 (stereo unspecified)", "102 to 103 °C"],
  ["Cc1ccc(O[C@H]2CCN(C)C[C@H]2O)cc1C (relative stereo)", "127 to 129 °C"],
  ["CSc1ccc(C(=O)Cc2ccc(F)cc2)cc1", "139 to 140 °C"]
]}

Look at this compound and give its reported melting point. OCc1cccc(C=CC2N=Cc3cc(Cl)ccc3S2)c1 (stereo unspecified) 143 to 145 °C

Could you share which melting point value was measured for `COc1ccc(-n2nc(Cl)cc2-c2ccc(S(C)(=O)=O)cc2)cc1C#N` ? 191 to 194 °C

// returns reported melting point for input `CNC(=O)c1sc(N2CCN(Cc3ccc(F)cc3)C2=O)nc1C` 225 to 227 °C

Fill in the blank: the reported melting point of CCOC(=O)c1cc2cc(-c3ccc(C(C)O)cc3)ccc2o1 (stereo unspecified) is ____. 108 to 109 °C

Any idea what its melting point is? The compound is `O=C(O)c1cnn2c(C(F)F)cc(-c3ccc(Cl)c(Cl)c3)nc12` 263 °C

Fill in the blank: the reported melting point of `CN(Cc1ccc(OC(C)(C)C(=O)O)cc1)c1ccc(Cl)cc1` is ____. 63 to 65 °C

Return reported melting point; argument: `CCCc1c(OCCCOc2ccc(C(C)=O)c(OCC(=O)O)c2CCC)ccc(C(C)=O)c1O` 151 to 155 °C

# get_value(readout='melting point', item= `COc1cc2c(c(C(C)C)c1OC)C(=O)N(CSc1nnnn1-c1ccccc1)S2(=O)=O` ) 69 to 71 °C

melting point lookup needed for CN(C)CCCN(C=O)C1CCC2C3CCC4CCCCC4(C)C3CCC21C (stereo unspecified) , thanks. 122 °C

Reference for the values: a melting point compilation (Tetko et al.; mined from patent text by program, amines drawn as free bases though some values may be those of a salt)
